experiment: Biodistribution in Jurkat tumor-bearing CB-17 SCID mice; format: in vivo; details: CB-17 SCID, mouse, in vivo, iv, total radioactivity, Tumor activity 48 h p.i.
Non-standard residues stand in square brackets, D forms with d. Residues, ends and D or L forms follow the SMILES beside them. Groups on a side chain read outwards from the residue. *: point of attachment. DOTA = O=C(O)CN1CCN(CC(=O)O)CCN(CC(=O)*)CCN(CC(=O)O)CC1; dTyr(3-I) = N[C@H](Cc1ccc(O)c(I)c1)C(=O)O; 2Nal = N[C@@H](Cc1ccc2ccccc2c1)C(=O)O; dNMeOrn = CN[C@H](CCCN)C(=O)O; 4Abz = Nc1ccc(C(=O)O)cc1; dDap = NC[C@@H](N)C(=O)O
parameter.measured: tissue uptake at 48 h (%ID/g)
Provide the reading as a plain figure in %ID/g.

What measured tissue uptake at 48 h goes with C[C@@H](NC(=O)[C@@H](CCCNC(=N)N)NC(=O)[C@@H](CN)NC(=O)CN1CCN(CC(=O)O)CCN(CC(=O)O)CCN(CC(=O)O)CC1)C(=O)Nc1ccc(C(=O)NCCC[C@@H]2C(=O)N[C@@H](CCCNC(=N)N)C(=O)N[C@@H](Cc3ccc4ccccc4c3)C(=O)NCC(=O)N[C@H](Cc3ccc(O)cc3)C(=O)N2C)cc1 [CXCR4-DOTA-3 [Lu]] (cyclo([dY][dNMeOrn]([4Abz-dA-dR-dDap-DOTA])R[2Nal]G)) ? 5.44

Lookup C[C@@H](NC(=O)[C@@H](CCCNC(=N)N)NC(=O)[C@@H](CN)NC(=O)CN1CCN(CC(=O)O)CCN(CC(=O)O)CCN(CC(=O)O)CC1)C(=O)Nc1ccc(C(=O)NCCC[C@@H]2C(=O)N[C@@H](CCCNC(=N)N)C(=O)N[C@@H](Cc3ccc4ccccc4c3)C(=O)NCC(=O)N[C@H](Cc3ccc(O)c(I)c3)C(=O)N2C)cc1 [CXCR4-DOTA-4 [Lu]] (cyclo([dTyr(3-I)][dNMeOrn]([4Abz-dA-dR-dDap-DOTA])R[2Nal]G)) 7.23

Recorded values, source patent US20250288704A1.
